Kindly supply the reported log10(intrinsic clearance, rat liver microsomes) values for the records listed here.
Log10 applied to intrinsic clearance, rat liver microsomes; unit prior to transform: mL/min/kg.

C=CC(=O)N1CCC([C@@H]2CCNc3c(C(N)=O)c(-c4ccc(Oc5ccccc5)cc4)nn32)CC1    2.76
Cc1ccc(S(=O)(=O)N2CCC(c3nnc(-c4cccnc4)o3)C2)cc1 (centres undefined)    2.77
Cc1nc(CCNc2cnccc2C#N)cs1    2.59
COc1ccc(C2(NCc3ccc(N4CCCC4=O)cc3)CC2)cc1    2.42
COc1ccc2nc3c(cc2c1)CNCCO3    1.92

Provide reported log10(intrinsic clearance, rat liver microsomes) for each item, in the same order as listed.
1. Cc1nccc(-c2cccc(NCC(=O)NCC(=O)N3CCCC3)c2)n1
2. N=C(N)N/N=C/c1c(Cl)cccc1Cl
3. Cc1nc(C(C)C)sc1C(=O)Nc1nc(C(C)(C)C)cs1
4. CCN(Cc1ccccc1)C(=O)c1ccc(O)cc1O
5. O=c1[nH]c2cnccc2n1Cc1ccccc1

1.21
1.89
2.60
2.86
1.68

###

Kindly supply the reported fraction unbound, rat plasma values for the records listed here.
Answers are plain numbers.

Provide reported fraction unbound, rat plasma for each item, in the same order as listed.
1. Cc1ncc(CN2CC[C@@H](Nc3cncc(Cl)n3)[C@@H](C)C2)s1
2. COCCNC(=O)c1ccnc(C2CCNCC2)c1

[0.184, 1]

###

test.readout: MDR1-MDCK efflux ratio
Answers are plain numbers.

NC(=O)c1ccc(Oc2ccc(C(=O)N3CCCCCC3)cc2)cc1    4.9
CN(C)C(=O)COc1ccc(N)c(F)c1    0.766
Cc1ccc(-c2ccnc(N3C[C@@H](C)NC[C@@H]3C)n2)c(C)n1    25.7

Provide reported MDR1-MDCK efflux ratio for each item, in the same order as listed.
1. COc1ccc2c(c1)C=C(CN1CCC(c3cc(-c4ccc(N)nc4)cc(C)n3)CC1)CO2
2. Cc1nc([C@H]2CC[C@H](CNC(=O)CN3CCC(c4ccccc4)CC3)CC2)ccc1C(N)=O
3. COc1ccc(C(=O)N2CCCC2)cc1NC(C)C
4. CCN1C(=O)CC[C@H](C(=O)N2CCc3cc(F)cc(C)c3C2)[C@H]1c1ccncc1
5. Cc1nccn1CCNC(=O)C(C)(C)C
6. Cc1nc2ncc3c(n2n1)CCCC3=O
7. CC(=O)N1CCC(C(=O)Nc2nccs2)(c2ccccc2)CC1
8. CCC(=O)N1CCN(c2ccc(Cl)cc2NC(=O)COc2ccccc2)CC1

0.999
14.9
1.08
51.4
6.52
0.752
39.4
0.871

Provide reported MDR1-MDCK efflux ratio for each item, in the same order as listed.
1. CC[C@@H]1CN(c2ccc(C(=O)Nc3cn4cc(C)nc4cn3)c(F)c2)CCN1
2. Cn1c(CNC(=O)Cc2ccccc2)nc2ccccc21
3. CN(C)C1(CNC(=O)N2CCC=C(c3ccccc3)C2)CCOCC1
4. Cc1ccc2c(c1)c(Cn1ccnc1-c1cccc(C)n1)nn2C
5. O=C(c1ccc(Cl)cc1)N1CCC(c2nnc3n2CCCC3)CC1
6. CN(CCSc1ccc2nnnn2n1)Cc1ccccc1
7. O=S(=O)(NC[C@H]1CCCN1)c1ccc(OC(F)F)cc1
8. c1nn(C2CCOCC2)cc1Nc1ncc2nnn(-c3ccc4cn[nH]c4c3)c2n1

[2.39, 2.25, 35.5, 0.679, 128, 0.431, 2.89, 531]

###

Kindly supply the reported MDR1-MDCK efflux ratio values for the records listed here.
Give bare numbers.

Before answering, review these 2 worked examples.
O=S(=O)(c1cccnc1)N1CCC2(Cc3ccccc3C2)C1    0.627
O=C(Cn1nc2n(c1=O)-c1ccccc1C1=NCCN12)N1CCCc2ccccc21    7.27

Provide reported MDR1-MDCK efflux ratio for each item, in the same order as listed.
1. O=c1ccc(-c2ccc(F)cc2)nn1Cc1ccncc1
2. Cc1ncc(CN2CCC(Nc3ccc4nnnn4n3)C(C)C2)s1 (stereo unspecified)

1: 0.674; 2: 27.5

Provide reported MDR1-MDCK efflux ratio for each item, in the same order as listed.
1. Cc1nc(C(=O)NCC(=O)O)c(O)c2ccc(Oc3ccccc3)cc12
2. Cc1nnc2ccc(NCCOC3CCCCCC3)nn12
3. CC(C)(C)c1ccc(=O)n(CC2CN(CC3(O)CCCC3)C2)n1
4. Cc1cc(C(=O)N(C)C2CCSCC2)c(=O)n(C)c1C

[1.23, 1.54, 18.8, 39]

###

conditions: pH 6.8
Kindly supply the reported aqueous solubility values for the records listed here.
Give bare numbers, in µg/mL.

CCCN(C)C(=O)Nc1cccc(-c2nnc3n2CCCCC3)c1    39.4
O=C(NCCc1cnn(-c2ccccc2)c1)N1CCC1    39.6
C[C@@H](C(=O)N1CCCC1)N1CCC(n2c(=O)[nH]c3ccccc32)CC1    40.6

Provide reported aqueous solubility for each item, in the same order as listed.
1. N#Cc1ccc(OCCn2cccn2)cc1
2. CCOc1ccc(C(=O)Nc2cnn(C3CCOCC3)c2)cn1

39.8
39.9

###

Label Met when intrinsic clearance, rat liver microsomes is strictly below 100 mL/min/kg; at or above that, label Not met.

Answered cases to consult:
CN(C)C1=N[C@@H]2[C@@H](O)[C@H](O)[C@@H](CO)O[C@@H]2S1    Met
CN(C)c1ccc2c(c1)OCCN2C(=O)NCc1cccnc1    Not met
CC(C)(C)c1ccc(=O)n(CC2CN(CC3(O)CCCC3)C2)n1    Not met
CN1CCc2nc(NC(=O)c3ccc(Cl)s3)sc2C1    Not met
C(=C\c1ccccc1)/CNCc1ccc2c(c1)OCO2    Not met

Find out if reported intrinsic clearance, rat liver microsomes for Cc1cc(-c2nnc3ccc4ccccc4n23)n(C)n1 is less than 100 mL/min/kg
Met

Find out if reported intrinsic clearance, rat liver microsomes for CN(C)c1ncn(-c2cccc(N)c2)n1 is less than 100 mL/min/kg
Met

Find out if reported intrinsic clearance, rat liver microsomes for NCCCc1nc(-c2ccncc2)cs1 is less than 100 mL/min/kg
Not met

Find out if reported intrinsic clearance, rat liver microsomes for CCCn1cc(CNC(=O)CN2CCCC2)cn1 is less than 100 mL/min/kg
Not met

Find out if reported intrinsic clearance, rat liver microsomes for CNC(=O)CC1CCN(c2ncccn2)CC1 is less than 100 mL/min/kg
Met

Find out if reported intrinsic clearance, rat liver microsomes for Cc1csc(N2CCN(Cc3ccc(OCC(F)(F)F)nc3)CC2)n1 is less than 100 mL/min/kg
Not met

Find out if reported intrinsic clearance, rat liver microsomes for O=C(CC1CCCC1)NCc1nnc2n1CCC2 is less than 100 mL/min/kg
Met

Find out if reported intrinsic clearance, rat liver microsomes for COCc1ccc(-c2nc3c([nH]2)c(C)nn3C2CCCCC2)o1 is less than 100 mL/min/kg
Not met

Find out if reported intrinsic clearance, rat liver microsomes for COc1ccc(CNC(=O)c2nnn(-c3ccc(OC)cc3)c2N)cc1 is less than 100 mL/min/kg
Met

Find out if reported intrinsic clearance, rat liver microsomes for N#CN1CCC[C@H](n2nc(-c3ccc(Oc4ccc(F)cc4F)cc3)c(C(N)=O)c2N)C1 is less than 100 mL/min/kg
Met

Find out if reported intrinsic clearance, rat liver microsomes for CN(Cc1ccc(Cl)cc1)C(=O)c1ccc(-n2ccnc2)nc1 is less than 100 mL/min/kg
Met

Find out if reported intrinsic clearance, rat liver microsomes for O=c1c2sccc2nc2n1CCN(Cc1ccc(F)cc1F)CC2 is less than 100 mL/min/kg
Not met

Find out if reported intrinsic clearance, rat liver microsomes for COC(C)(C)CCNC(=O)CC1CC(C)(C)NC(C)(C)C1 is less than 100 mL/min/kg
Met

Find out if reported intrinsic clearance, rat liver microsomes for O=C(C1CCCN(c2ccc(Cl)nn2)C1)N1CCc2ccccc2C1 (stereo not drawn) is less than 100 mL/min/kg
Not met

Find out if reported intrinsic clearance, rat liver microsomes for COc1ccc(CN2CC(c3ccncc3)C2)cc1Cn1cccn1 is less than 100 mL/min/kg
Not met

Find out if reported intrinsic clearance, rat liver microsomes for CNc1nc(-c2cc(OC)cc(OC)c2)ncc1F is less than 100 mL/min/kg
Not met

###

Kindly supply the reported log10 of aqueous solubility values for the records listed here.
conditions: pH 6.8
Log10 applied to aqueous solubility; unit prior to transform: mg/mL.

Cn1ncc2c(N3CCN(c4ccc(Cl)c(Cl)c4)CC3)ncnc21    -3.89
Cc1nc2cc(NC(=O)CCc3c(C)noc3C)ccc2o1    -1.41
O=c1[nH]c2ccccc2n1C1CCN(S(=O)(=O)Cc2ccccc2)CC1    -2.58
COCc1ccc(-c2nc3c([nH]2)c(C)nn3C2CCCCC2)o1    -1.42

Now for another entry.
Which log10 of aqueous solubility is listed for O=C(Cc1cccc2ccccc12)NCc1ccc(N2CCCC2=O)cc1 ?
-1.85
